target_or_test_system: pseudo-kinase domain (JH2, amino-acids 536-812) of human V617F mutant JAK2 (Homo sapiens, UniProt O60674, F794H/V617F/W659A/W777A)
Construct: pseudo-kinase domain (JH2, amino-acids 536-812 with 3 surface mutations W659A, W777A, F794H); purchased BPS Bioscience 79498; host or cells: baculovirus expression system
Sequence (O60674 536-812 V617F/W659A/W777A/F794H): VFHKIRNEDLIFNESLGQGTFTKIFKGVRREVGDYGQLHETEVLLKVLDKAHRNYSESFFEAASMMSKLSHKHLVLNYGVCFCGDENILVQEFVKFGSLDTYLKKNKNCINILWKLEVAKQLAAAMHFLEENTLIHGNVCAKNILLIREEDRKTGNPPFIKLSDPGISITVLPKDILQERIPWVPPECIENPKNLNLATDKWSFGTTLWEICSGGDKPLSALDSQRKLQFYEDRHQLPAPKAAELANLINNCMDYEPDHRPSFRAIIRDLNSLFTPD
protocol_details: JAK2 LanthaScreen JH2-V617F Binding Assay
applied_conditions: 1 hour at 25° C.
pIC50: −log10 of the molar value. Counter-ions that a name gives are not always drawn.
Listing of recorded pIC50 by entry.

Worked cases, pIC50 given:
COCCn1cc(-c2[nH]c3ncc4c(c3c2-c2ccc3c(cnn3C)c2)C2(CCN(C3(CC#N)CCC3)CC2)C(=O)N4C)cn1 [Example 36, trifluoroacetate salt]: ≥ 7.00
CN1C(=O)C2(CCCC2)c2c1cnc1[nH]c(C3CC3)c(-c3ccc4c(cnn4C)c3)c21 [Example 9, trifluoroacetate salt]: 6.30 to 7.00
[2H]C([2H])([2H])n1ncc2cc(-c3c(-c4cnn(C)c4)[nH]c4ncc5c(c34)C3(CC4(CCN(C(=O)OC)CC4)C3)C(=O)N5C)ccc21 [Example 58, trifluoroacetate salt]: ≥ 7.00
CN1C(=O)C2(CCCC2)c2c1cnc1[nH]c(-c3cnn(C)c3)c(-c3ccc(CN4CCN(S(C)(=O)=O)CC4)cc3)c21 [Example 22, trifluoroacetate salt]: 6.30 to 7.00
CCS(=O)(=O)N1CCC[C@@]2(CC1)C(=O)N(C)c1cnc3[nH]c(-c4cnn(C(C)C)c4)c(-c4ccc5c(cnn5C)c4)c3c12 (single isomer, unassigned) [Example 53b]: ≥ 7.00
CN1C(=O)C2(CCN(c3ccncn3)CC2)c2c1cnc1[nH]c(-c3ccc(CN4CCC(S(C)(=O)=O)CC4)cc3)c(-c3ccccc3)c21 [Example 15, trifluoroacetate salt]: ≥ 7.00
CN1C(=O)C2(CCN(c3ccncn3)CC2)c2c1cnc1[nH]c(-c3cnn(C)c3)c(C3=CCOCC3)c21 [Example 20, trifluoroacetate salt]: 6.30 to 7.00
CN1C(=O)C2(CCN(C3(CC#N)CCC3)CC2)c2c1cnc1[nH]c(-c3cnn(C(C)(C)CO)c3)c(-c3ccc4c(cnn4C)c3)c21 [Example 37, trifluoroacetate salt]: ≥ 7.00
CCS(=O)(=O)N1CC2(C1)CC1(C2)C(=O)N(C)c2cnc3[nH]c(-c4cnn5c4CCC5)c(-c4ccc5c(cnn5C)c4)c3c21 [Example 94, trifluoroacetate salt]: ≥ 7.00
CCS(=O)(=O)c1ccc(-c2[nH]c3ncc4c(c3c2-c2ccc3c(cnn3C)c2)C2(CCN(C3(CC#N)CCC3)CC2)C(=O)N4C)cc1 [Example 35, trifluoroacetate salt]: ≥ 7.00

Now, please, on to the next molecule.
-- ask Give recorded pIC50. CN1C(=O)C2(CCN(C(=O)CC3CCOCC3)C2)c2c1cnc1[nH]c(-c3ccc(CN4CCC(S(C)(=O)=O)CC4)cc3)c(-c3ccccc3)c21 (racemic) [Example 12, trifluoroacetate salt]
-- reply 6.30 to 7.00
